# Species on record: Rattus norvegicus
# Test Summary: DrugMatrix - Regimen: Daily Repeat
# Format: toxicity, organism-based, Sprague-Dawley
# Design: regimen Daily Repeat, gender Male, age 6-8 weeks
# Measurement Conditions: in vivo, po, 0 mg/kg, 120 h, tissue Blood, route oral GAVAGE, dose level Control, time 5 day, […]
Measured Parameter: ABSOLUTE LYMPHOCYTE

Compound	Result
COCc1c(C(C)C)nc(C(C)C)c(/C=C/[C@@H](O)C[C@@H](O)CC(=O)O)c1-c1ccc(F)cc1	12494.67 CELLS/uL
CN(C)CCCC1(c2ccc(F)cc2)OCc2cc(C#N)ccc21 (stereo not given)	9065 CELLS/uL
CC(C)n1c(/C=C/C(O)CC(O)CC(=O)O)c(-c2ccc(F)cc2)c2ccccc21 (stereo not given)	9629.83 CELLS/uL
Oc1c(Cl)cc(Cl)cc1Sc1cc(Cl)cc(Cl)c1O	9629.83 CELLS/uL
Cn1cnc([N+](=O)[O-])c1Sc1ncnc2nc[nH]c12	4426.33 CELLS/uL

###

# Species: Rattus norvegicus
# Test Summary: DrugMatrix - Regimen: Daily Repeat
# Assay type: toxicity, organism-based, Sprague-Dawley
# Set-up: regimen Daily Repeat, gender Male, age 6-8 weeks
# Measurement Conditions: in vivo, po, 0 mg/kg, 120 h, tissue Blood, route oral GAVAGE, dose level Control, time 5 day, […]
Measured Parameter: NUCLEATED RED BLOOD CELLS

Molecule	Result
c1ccc2[nH]c(-c3cscn3)nc2c1 [THIABENDAZOLE]	0 /100WBC
CC(C)n1c(/C=C/C(O)CC(O)CC(=O)O)c(-c2ccc(F)cc2)c2ccccc21 (centres undefined) [FLUVASTATIN]	0.17 /100WBC
CCCC[C@@H](CC)COC(=O)c1ccccc1C(=O)OC[C@@H](CC)CCCC [BIS(2-ETHYLHEXYL)PHTHALATE]	0 /100WBC
COC1=CC(=O)C[C@@H](C)[C@]12Oc1c(Cl)c(OC)cc(OC)c1C2=O [GRISEOFULVIN]	0.33 /100WBC
CCCCCCCCCc1ccc(O)cc1 [4-NONYLPHENOL]	0 /100WBC
COCc1c(C(C)C)nc(C(C)C)c(/C=C/[C@@H](O)C[C@@H](O)CC(=O)O)c1-c1ccc(F)cc1 [CERIVASTATIN]	0 /100WBC
COc1ccc2c(c1)c(CC(=O)OCC(=O)O)c(C)n2C(=O)c1ccc(Cl)cc1 [ACEMETACIN]	0 /100WBC
CC(=O)[C@H]1CC[C@H]2[C@@H]3CCC4=CC(=O)CC[C@]4(C)[C@H]3CC[C@]12C [PROGESTERONE]	0 /100WBC
Oc1c(Cl)cc(Cl)cc1Sc1cc(Cl)cc(Cl)c1O [BITHIONOL]	0.17 /100WBC

###

# Organism: Rattus norvegicus
# Test Summary: DrugMatrix - Regimen: Daily Repeat
# Assay type: toxicity, organism-based, Sprague-Dawley
# Set-up: regimen Daily Repeat, gender Male, age 6-8 weeks
# Measurement Conditions: in vivo, po, 10 mg/kg, 120 h, tissue Blood, route oral GAVAGE, dose level Low, time 5 day, vehicle .5 % CMC
Reported HEMOGLOBIN values for a set of molecules
Measured Parameter: HEMOGLOBIN (G/DL)

Molecule	Measured Number
CC(=O)O[C@]1(C(C)=O)CC[C@H]2[C@@H]3C=C(Cl)C4=CC(=O)CC[C@]4(C)[C@H]3CC[C@@]21C [CHLORMADINONE ACETATE]	14.57
O=C1CN=C(c2ccccc2)c2cc([N+](=O)[O-])ccc2N1 [NITRAZEPAM]	13.93
NS(=O)(=O)c1cc2c(cc1Cl)NCNS2(=O)=O [HYDROCHLOROTHIAZIDE]	14.23
COc1c(C)c2c(c(O)c1C/C=C(\C)CCC(=O)OCCN1CCOCC1)C(=O)OC2 [MYCOPHENOLATE MOFETIL]	13.7

###

# Species: Rattus norvegicus
# Test Summary: DrugMatrix - Regimen: Daily Repeat
# Assay type: toxicity, organism-based, Sprague-Dawley
# Parameters: regimen Daily Repeat, gender Male, age 6-8 weeks
# Measurement Conditions: in vivo, po, 0 mg/kg, 120 h, tissue Plasma, route oral GAVAGE, dose level Control, time 5 day, vehicle .5 % CMC
Reported ALKALINE PHOSPHATASE values for a set of molecules

Molecule	ALKALINE PHOSPHATASE
CCc1ccc(C(=O)C(C)CN2CCCCC2)cc1 (centres undefined) [EPERISONE]	365.67 u/L
CC1(C)[C@H]2CC[C@]1(C)C(=O)C2 [(-)-CAMPHOR]	336 u/L
NCC(=O)O [GLYCINE]	369.5 u/L
O=C1CCc2cc(OCCCCc3nnnn3C3CCCCC3)ccc2N1 [CILOSTAZOL]	391 u/L
CCOC(=O)OC(C)OC1=C(C(=O)Nc2ccccn2)N(C)S(=O)(=O)c2ccccc21 (centres undefined) [AMPIROXICAM]	322.17 u/L
CN1CCC[C@@H]1CCO[C@](C)(c1ccccc1)c1ccc(Cl)cc1 [CLEMASTINE]	337 u/L
Cc1c(-c2ccccc2)oc2c(C(=O)OCCN3CCCCC3)cccc2c1=O [FLAVOXATE]	382.5 u/L
CC(C)[C@H](N)C(=O)OCCOCn1cnc2c(=O)[nH]c(N)nc21 [VALACYCLOVIR]	352.33 u/L
CCC[C@@H]1C[C@@H](C(=O)N[C@@H]([C@H]2O[C@H](SC)[C@H](O)[C@@H](O)[C@H]2O)[C@@H](C)O)N(C)C1 [LINCOMYCIN]	373.17 u/L

###

# Species: Rattus norvegicus
# Test Summary: DrugMatrix - Regimen: Daily Repeat
# Format: toxicity, organism-based, Sprague-Dawley
# Parameters: regimen Daily Repeat, gender Male, age 6-8 weeks
# Measurement Conditions: in vivo, po, 0 mg/kg, 72 h, tissue Blood, route oral GAVAGE, dose level Control, time 3 day, vehicle 100 % WATER
Reported MEAN CORPUSCULAR VOLUME values for a set of compounds

Chemical Smiles	MEAN CORPUSCULAR VOLUME, fL
NNC(=O)c1ccncc1	64.8
C[C@]12Cc3c[nH]nc3C[C@@H]1CC[C@@H]1[C@@H]2CC[C@@]2(C)[C@H]1CC[C@]2(C)O	62.53
Nc1ccc(S(=O)(=O)Nc2ccnn2-c2ccccc2)cc1	63.07
CNCCC=C1c2ccccc2CCc2ccccc21	63
CN1CCC[C@H]1c1cccnc1	62.95

###

# Organism: Rattus norvegicus
# Test Summary: DrugMatrix - Regimen: Daily Repeat
# Format: toxicity, organism-based, Sprague-Dawley
# Set-up: regimen Daily Repeat, gender Male, age 6-8 weeks
# Measurement Conditions: in vivo, po, 0 mg/kg, 72 h, tissue Plasma, route oral GAVAGE, dose level Control, time 3 day, vehicle .5 % CMC
Reported CARBON DIOXIDE values for a set of molecules
Measured Parameter: CARBON DIOXIDE (mmol/L)

Molecule	Measured Parameter	Measured Number
Brc1ccccc1	CARBON DIOXIDE	30.83
CC(C)[C@H](N)C(=O)OCCOCn1cnc2c(=O)[nH]c(N)nc21	CARBON DIOXIDE	25
CCc1ccc(C(=O)C(C)CN2CCCCC2)cc1 (stereo not drawn)	CARBON DIOXIDE	27
CCC[C@@H]1C[C@@H](C(=O)N[C@@H]([C@H]2O[C@H](SC)[C@H](O)[C@@H](O)[C@H]2O)[C@@H](C)O)N(C)C1	CARBON DIOXIDE	34.33
CN1CCC[C@@H]1CCO[C@](C)(c1ccccc1)c1ccc(Cl)cc1	CARBON DIOXIDE	29.5
O=c1[nH]cc(F)c(=O)[nH]1	CARBON DIOXIDE	25.5
Cc1c(-c2ccccc2)oc2c(C(=O)OCCN3CCCCC3)cccc2c1=O [FLAVOXATE]	CARBON DIOXIDE	24.83
COC(=O)c1ccc(O)cc1	CARBON DIOXIDE	29.17
C=C1CC[C@H](O)C/C1=C/C=C1\CCC[C@]2(C)[C@@H]([C@H](C)/C=C/[C@H](C)C(C)C)CC[C@@H]12	CARBON DIOXIDE	31.67
COc1c(C)c2c(c(O)c1C/C=C(\C)CCC(=O)OCCN1CCOCC1)C(=O)OC2 [MYCOPHENOLATE MOFETIL]	CARBON DIOXIDE	29.5
CCOC(=O)OC(C)OC1=C(C(=O)Nc2ccccn2)N(C)S(=O)(=O)c2ccccc21 (stereo not drawn)	CARBON DIOXIDE	30.83
CC(/C=C1\SC(=S)N(CC(=O)O)C1=O)=C\c1ccccc1	CARBON DIOXIDE	29.5
CC1(C)[C@H]2CC[C@]1(C)C(=O)C2 [(-)-CAMPHOR]	CARBON DIOXIDE	27.5

###

# Organism: Rattus norvegicus
# Test Summary: DrugMatrix - Regimen: Daily Repeat
# Assay type: toxicity, organism-based, Sprague-Dawley
# Design: regimen Daily Repeat, gender Male, age 6-8 weeks
# Measurement Conditions: in vivo, po, 1500 mg/kg, 72 h, tissue Plasma, route oral GAVAGE, dose level High, time 3 day, vehicle .5 % CMC
Reported POTASSIUM values for a set of compounds

Compound	POTASSIUM
O=C1CCc2cc(OCCCCc3nnnn3C3CCCCC3)ccc2N1	6.77 MEQ/L
CCOC(=O)[C@H](CCc1ccccc1)N[C@@H](C)C(=O)N1[C@H](C(=O)O)C[C@@H]2CCC[C@@H]21	7.28 MEQ/L
NS(=O)(=O)c1cc2c(cc1Cl)NCNS2(=O)=O [HYDROCHLOROTHIAZIDE]	5.57 MEQ/L
COC(=O)c1ccc(O)cc1	6.96 MEQ/L
